Target: RAC-alpha serine/threonine-protein kinase (Homo sapiens)
Assay: HTS Assay for Inhibitors of Akt Phophorylation: Primary Screen
Settings: Neuro2A IGF-stimulated pAkt S473 HTRF, 20 min; at 50 µM, active compounds read low
Hit rate of the full screen: of about 360,000 compounds, about 1,100 (0.31%) were called active. The sample as a whole holds a higher share of actives than the screen did.
Measured attribute: activity change

Sample answers from the record:
- Compound: "O=C(COC(=O)Cc1ccc(Cl)cc1Cl)NCc1ccco1"
  activity change: "inactive"
- Compound: "Cn1c(=O)c2c(-c3cccc(Br)c3)c(C#N)c(N)nc2n(C)c1=O"
  activity change: "inactive"
- Compound: "CN(C)c1ccc(Nc2c3c4c(cccc4n(C)c2=O)C(=O)c2ccccc2-3)cc1"
  activity change: "inactive"
- Compound: "O=C1C(=O)N(CCN2CCOCC2)C(c2cccc(Cl)c2)/C1=C(/O)c1ccc2c(c1)OCO2 (configuration not stated)"
  activity change: "inactive"
- Compound: "COCc1cc(C)nc(SCC(=O)Nc2cccc(C)c2)c1C#N"
  activity change: "inactive"

Batch request: activity change for each of the following compounds.
1. COc1ccc(C2/C(=C(/O)c3ccc(OC(C)C)cc3)C(=O)C(=O)N2CCCN2CCOCC2)cc1 (configuration not stated)
2. Cc1cccc(C)c1NC(=O)C(c1cccc(F)c1)N1CCN(C)CC1 (configuration not stated)

Result string:
1: inactive; 2: inactive

Batch request: activity change for each of the following compounds.
1. Cc1nc2cc(NC(=O)CSc3nc4c(C)cccc4cc3C#N)ccc2s1
2. O=C1C(=O)N(CCN2CCOCC2)C(c2ccccn2)/C1=C(/O)c1ccc(Cl)cc1 (configuration not stated)
3. CSc1nc2c(c(=O)[nH]1)C(c1cccc(Cl)c1Cl)CC(=O)N2 (configuration not stated)
4. Cc1cccc(C(=O)Nc2ccc(C(=O)/C=C/c3cccs3)cc2)c1

Result string:
1: -95.1% (active); 2: -111% (active); 3: inactive; 4: -121% (active)

###

Target: RAC-alpha serine/threonine-protein kinase (Homo sapiens)
Experiment: HTS Assay for Inhibitors of Akt Phophorylation: Primary Screen; on activity change: on the % scale 0 is the no-effect control and ±100 the full control effect
Conditions: Neuro2A IGF-stimulated pAkt S473 HTRF, 20 min; at 50 µM
The campaign covered roughly 360,000 compounds. About 1,100 (0.31%) were called active. Cut-off read from the data, not from the text of the source: active = activity change below about -80%; inconclusive = mostly about -51% to -80%; inactive = weaker than that. The entries come from a sample that favours actives as a whole.
Hi there, use one of these labels in your reply, thanks! active, inactive

- Compound: "CCCc1cc(=O)[nH]c(SCC(=O)Nc2sc3c(c2C#N)CCCC3)n1"
  Group: "inactive"

Query string: What call does the record list for CC(C)OC(=O)CC(=O)CC(O)c1cccc([N+](=O)[O-])c1 (configuration not stated) ?
Result string: inactive

Query string: What call does the record list for "COC(=O)[C@]12CCCCC=C1N(Cc1ccc(Cl)cc1Cl)C(=O)[C@H](CC(=O)NCc1cccc3ccccc13)C2" ?
Result string: inactive

Query string: What call does the record list for "CCCCCn1nnnc1-c1nc2cc3ccccc3cc2[nH]c1=O" ?
Result string: inactive

Query string: What call does the record list for CC(C)(C)n1nnnc1C(c1ccc2ncccc2c1)N1CCSCC1 (configuration not stated) ?
Result string: inactive

Query string: What call does the record list for COc1ccc(C(O)C(O)(C(=O)OC(C)C)c2ccc(C)cc2)cc1 (configuration not stated) ?
Result string: inactive

Query string: What call does the record list for "COc1ccccc1N1CCN(C(=O)CSc2ncnc3c2cnn3-c2ccc(C)c(C)c2)CC1" ?
Result string: inactive

Query string: What call does the record list for "CC(=O)OCc1cc2cc(C)ccc2[nH]c1=O" ?
Result string: active

Query string: What call does the record list for "COc1cccc(N(CC(=O)N2CCc3ccccc3C2)S(C)(=O)=O)c1" ?
Result string: active

Query string: What call does the record list for "N#Cc1nc(Cc2ccccc2)oc1NCCc1ccccc1" ?
Result string: active

Query string: What call does the record list for "FC(F)(F)c1cc(-c2ccco2)nc(NCc2ccc(Cl)cc2)n1" ?
Result string: active

Query string: What call does the record list for "O=C(NNC(=O)C1CCN(c2ncccn2)CC1)c1ccccc1" ?
Result string: inactive

Query string: What call does the record list for COc1ccc(N2C(=O)CCC(C(=O)N(C)C3CCCCC3)C2c2ccc(OC)c(OC)c2)cc1 (configuration not stated) ?
Result string: inactive

Query string: What call does the record list for "CCOC(=O)[C@]12CCCC=C1N(CCC1=CCCCC1)C(=O)[C@H](CC(=O)N1CCSCC1)C2" ?
Result string: inactive

Query string: What call does the record list for "Cc1cc(Br)cn2c(Cc3ccccc3C(F)(F)F)c(-c3ccc(Cl)cc3)nc12" ?
Result string: inactive

Query string: What call does the record list for "N#Cc1c(NC(=O)CSc2nc3ccccc3c(=O)n2Cc2ccco2)sc2c1CCCC2" ?
Result string: active

Query string: What call does the record list for C=Cc1ccc(C(=O)N2CCCC(CCC(=O)N3CCN(c4ccccn4)CC3)C2)cc1 (configuration not stated) ?
Result string: inactive

###

Target: RAC-alpha serine/threonine-protein kinase (Homo sapiens)
Assay: HTS Assay for Inhibitors of Akt Phophorylation: Primary Screen; on activity change: on the % scale 0 is the no-effect control and ±100 the full control effect
Conditions: Neuro2A IGF-stimulated pAkt S473 HTRF, 20 min; at 50 µM
Out of some 360,000 compounds screened, about 1,100 (0.31%) were called active. Rule as the data show it: active = activity change below about -80%; inconclusive = mostly about -51% to -80%; inactive = weaker than that. This excerpt belongs to a sample that is enriched for actives.
Hi there, use one of these labels in your reply, thanks! TRUE (active), FALSE (inactive)

Query string: What call does the record list for COc1ccc(C(C(=O)NCc2ccccc2)n2c(=O)c(-c3ccccc3)nc3ccccc32)cc1 (stereo not drawn) ?
Result string: FALSE

Query string: What call does the record list for Cc1cccc(NC(=O)C2CCCN(C(=O)Nc3ccc(F)cc3)C2)c1C (stereo not drawn) ?
Result string: FALSE

Query string: What call does the record list for "CCOC(=O)N1CCN(C(=O)C[C@@H]2C[C@@]3(C(=O)OC)CC(C)(C)CC=C3N(Cc3ccco3)C2=O)CC1" ?
Result string: FALSE

Query string: What call does the record list for "Cc1ccc(F)cc1NC(=O)CSCc1c(C)noc1C" ?
Result string: FALSE

Query string: What call does the record list for "Cc1ccc(F)cc1NC(=O)Cc1nn(C)c(=O)c2ccccc12" ?
Result string: TRUE

Query string: What call does the record list for Cc1ccc2c(c1)N(CC(=O)N(Cc1ccccn1)Cc1ccco1)C(=O)C(C(C)C)O2 (stereo not drawn) ?
Result string: FALSE

Query string: What call does the record list for "CC(=O)Cc1nsc(NC(=O)c2ccc(COc3ccc(C)cc3)o2)n1" ?
Result string: FALSE

Query string: What call does the record list for CC1CC(C)CN(CCCNC(=O)c2csc3c2CCCCC3)C1 (stereo not drawn) ?
Result string: FALSE

Query string: What call does the record list for "CCc1c(-c2ccc(F)cc2)ncn1Cc1cccc(-c2ccccc2)c1" ?
Result string: FALSE

###

Target: RAC-alpha serine/threonine-protein kinase (Homo sapiens) (UniProt P31749)
Test: HTS Assay for Inhibitors of Akt Phophorylation: Primary Screen; on activity change: on the % scale 0 is the no-effect control and ±100 the full control effect
Settings: Neuro2A IGF-stimulated pAkt S473 HTRF, 20 min; at 50 µM
In all, about 360,000 compounds went through this assay and about 1,100 (0.31%) were called active. Rule as the data show it: active = activity change below about -80%; inconclusive = mostly about -51% to -80%; inactive = weaker than that. Shown is part of a subset that was picked to be rich in actives.
Hi there, use one of these labels in your reply, thanks! active, inactive

Example entries begin here.
- Record smiles: "CSc1ccc(-c2c(C#N)c(N)nc3c2c(C)nn3-c2ccccc2)cc1"
  Group: "active"
- Record smiles: "Cc1ccc2nc(Nc3ncc4c(n3)CC(C)(C)CC4=O)nc(C)c2c1"
  Group: "inactive"
- Record smiles: "Cc1nonc1NC(=O)CSc1nc2ccccc2cc1C#N"
  Group: "inactive"
- Record smiles: "Cc1cccc(NC(=O)COC(=O)CCc2ccccc2)c1C"
  Group: "inactive"
- Record smiles: "Cc1cccc(NC(=O)CSc2nc3c(c(=O)[nH]2)CCCC3)c1C"
  Group: "inactive"

Query string: What call does the record list for "Cc1cccc(C(=O)Nc2ccc3c(c2)C(=O)N(CC(C)C)C3=O)c1" ?
Result string: inactive

###

Target: RAC-alpha serine/threonine-protein kinase (Homo sapiens) (UniProt P31749)
Assay: HTS Assay for Inhibitors of Akt Phophorylation: Primary Screen; on activity change: on the % scale 0 is the no-effect control and ±100 the full control effect
Conditions: Neuro2A IGF-stimulated pAkt S473 HTRF, 20 min; at 50 µM
In all, about 360,000 compounds went through this assay and about 1,100 (0.31%) were called active. Rule as the data show it: active = activity change below about -80%; inconclusive = mostly about -51% to -80%; inactive = weaker than that. The sample holds actives, similar compounds and a random draw of the others, so the mix is not that of the screen.
Hi there, use one of these labels in your reply, thanks! 1 for active, -1 for inactive

Query string: What call does the record list for "O=C(NCc1ccccc1Cl)c1csc2c1CCCCC2" ?
Result string: 1

Query string: What call does the record list for "CC(=O)Cc1nsc(NC(=O)c2csc3c2CCCC3)n1" ?
Result string: 1

Query string: What call does the record list for "Cc1[nH]c(=O)c(C(=O)/C=C/c2ccccc2)c2c1CCCC2" ?
Result string: 1

Query string: What call does the record list for "COC(=O)c1nc(NC(=O)c2ccc(Cl)cc2)n[nH]1" ?
Result string: -1
